# assayedTarget: T1, human CD137 expressed on the surface of CHO cells (human, UniProt Q07011 24-255)
# T1 construct: Also used for the Jurkat reporter cells that express human CD137 (functional rows); also called CHO human CD137 cells; CHO huCD137
# T1 sequence (Q07011 24-255 limits assumed): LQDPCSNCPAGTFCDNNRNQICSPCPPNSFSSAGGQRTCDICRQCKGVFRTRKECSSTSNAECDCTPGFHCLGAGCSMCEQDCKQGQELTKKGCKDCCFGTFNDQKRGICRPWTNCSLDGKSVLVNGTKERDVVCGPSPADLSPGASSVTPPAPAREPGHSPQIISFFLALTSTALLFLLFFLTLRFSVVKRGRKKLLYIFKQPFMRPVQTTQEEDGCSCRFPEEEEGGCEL
# test: FMAT ligand inhibition, CD137 Ligand on CHO human CD137 cells
pIC50: −log10 of the molar value.
quantityKind: pIC50

4.1(PSMA-binding VH)-6GS-1.1 (bispecific antibody, tandem VH, PSMA x CD137; also called 4.1-6GS-1.1; not shown: His tag) EVQLVESGGGVVQPGRSLRLSCAASGFSFSGYGMHWVRQAPGKGLEWVAYISYDGSNKYYADSVKGRFTISRDNSKNTLYLQMNSLRAEDTAVYYCAKDPAWGLRLGESSSYDFDIWGQGTMVTVSSGGGGSGGGGSGGGGSGGGGSGGGGSGGGGSEVQLVESGGGLVQPGGSLRLSCAASGFTFSSHWMTWFRQAPGKGLEWVAHIKEDGSEKYYEDSVEGRFTVSRDNAKNSVYLQMNSLRAEDTAVYYCARGGDGYSDSHFGVDVWGQGTTVTVSS    8.60

A = Humabody VH 2.26 (VHH, human single VH domain) VHH: EVQLVESGGGLVKPGGSLRLSCTASGFTFTDYYMSWFRQAPGKGLEWVSHISSSGTTIDYADSVKGRFTISRDNAKNSLYLQMNSLRADDTAVYYCAREDIRMPGTTDFDNWGQGTLVTVSS
B = Humabody VH 1.106 (VHH, human single VH domain) VHH: EVQLVESGGGLVQPGGSLRLSCAASGFTFSSHWMTWFRQAPGKGLEWVAHIKEDESEKYYVDSVKGRFTISRDNAKNSLYLQMNSLRAEDTAVYYCARGGEGYSISHFGVDVWGQGTTVTVSS
// query Among A and B , which shows a numerically higher pIC50 result? Field: selected label. Fill in the label of the entry you choose.
// result B

Where these numbers come from: patent US20200362047A1
